src = the supplement of paper PMC13380429

Test system: Caco-2
Experiment: cell viability relative to DMSO; higher = less toxic
Details: 72 h; 10000 nM
Reported cell viability is given for each of the following molecules.

{"columns": ["molecule", "u", "cell viability"],
 "data": [
  ["COc1cc(Br)c(Nc2nc(-c3c(C)nc4ncccn34)cs2)c(Br)c1 [PTC-209]", "%", 16.7],
  ["CN(c1ccccc1CNc1nc(Nc2ccc3c(c2)CC(=O)N3)ncc1C(F)(F)F)S(C)(=O)=O", "%", 33.6],
  ["COc1cc([C@@H]2c3cc4c(cc3[C@@H](O[C@@H]3O[C@@H]5CO[C@@H](c6cccs6)O[C@H]5[C@H](O)[C@H]3O)[C@H]3COC(=O)[C@H]23)OCO4)cc(OC)c1O [teniposide]", "%", 29],
  ["O=C1Nc2ccccc2C12OCC1(CO2)COC2(OC1)C(=O)Nc1ccccc12 (stereo unspecified) [JW-67]", "%", 88.1],
  ["N#Cc1c(N)nc(SCc2csc(-c3ccc(Cl)cc3)n2)c(C#N)c1-c1ccc(OCCO)cc1 [capadenoson]", "%", 74.8],
  ["CC1OC2(CS1)CN1CCC2CC1 (stereo unspecified) [cevimeline]", "%", 96.3],
  ["Clc1cccc(-c2nnnn2Cc2cccnc2)c1Cl", "%", 91.1],
  ["CN[C@@H](C)C(=O)N[C@H](C(=O)N1CCC[C@H]1C(=O)Nc1sc(-c2ncco2)nc1-c1ccccc1)C1CCCCC1 [CUDC-427]", "%", 99.7],
  ["C/C(=C\\c1csc(C)n1)[C@@H]1C[C@@H]2O[C@]2(C)CCC[C@H](C)[C@H](O)[C@@H](C)C(=O)C(C)(C)[C@@H](O)CC(=O)N1 [ixabepilone]", "%", 49.2],
  ["CCCn1c(=O)c2[nH]c(-c3cnn(Cc4cccc(C(F)(F)F)c4)c3)nc2n(CC)c1=O [GS-6201]", "%", 100],
  ["O=C(OCC(O)CO)c1ccccc1Nc1ccnc2c(C(F)(F)F)cccc12 (stereo unspecified) [floctafenine]", "%", 96.9],
  ["O=C(N[C@@H]1Cc2ccccc2N(C[C@@H](O)CO)C1=O)c1cc2cc(Cl)sc2[nH]1 [GPi-688]", "%", 92.9],
  ["CN(c1nccc(=O)[nH]1)C1CCN(c2nc3ccccc3n2Cc2ccc(F)cc2)CC1 [mizolastine]", "%", 98.3],
  ["CN1CCN(CCCN2c3ccccc3Sc3ccc(Cl)cc32)CC1 [prochlorperazine]", "%", 76.6],
  ["Cc1cc(O)c2c(=O)c3c(O)cc(O)c4c5c(O)cc(O)c6c(=O)c7c(O)cc(C)c8c1c2c(c34)c(c78)c65 [hypericin]", "%", 98.3],
  ["O=C(Nc1cc(C(F)(F)F)cc(C(F)(F)F)c1)Nc1c(Br)cc(Br)cc1-c1nnn[nH]1 [NS-5806]", "%", 91.7]
]}

###

Test system: HepG2
Test: cell viability relative to DMSO; higher = less toxic
Conditions: 72 h; 1 nM
endpoint: cell viability (%)

{"columns": ["compound", "endpoint", "quantitativeReadout"],
 "data": [
  ["CC1OC2(CS1)CN1CCC2CC1 (configuration not stated)", "cell viability", 107],
  ["CC[C@@]1([C@H]2O[C@H]([C@H]3O[C@@](O)(CO)[C@H](C)C[C@@H]3C)C[C@H]2C)CC[C@H]([C@@]2(C)CC[C@]3(C[C@H](O)[C@@H](C)[C@@H]([C@H](C)[C@H](OC)[C@@H](C)C(=O)O)O3)O2)O1 [MONENSIN SODIUM]", "cell viability", 94.6],
  ["CCN(CC)CC1CCN(c2ncc3ncnc(Nc4ccc(F)c(Cl)c4)c3n2)CC1", "cell viability", 100],
  ["CCOC(=O)c1ccc(NC2CCCCC2)c(N)c1", "cell viability", 94],
  ["CC12CCC(CC1=O)C2(C)C (stereo not drawn) [camphor-(+)]", "cell viability", 95.8],
  ["COc1cn(-c2ccc(-n3cccn3)cc2F)nc(-c2ccnn2-c2ccccc2)c1=O", "cell viability", 99.7],
  ["O=C1NCCNC1c1cccs1 (configuration not stated)", "cell viability", 106],
  ["C[C@H]1C[C@H]2[C@@H]3CCC4=CC(=O)C=C[C@]4(C)[C@@]3(F)[C@@H](O)C[C@]2(C)[C@@]1(O)C(=O)CO", "cell viability", 101],
  ["CC(C)NNC(=O)c1ccncc1", "cell viability", 108],
  ["CC(=O)Nc1cccc2c1c(Sc1ccc(Cl)cc1)c(C)n2CC(=O)O", "cell viability", 100],
  ["Cc1ccc([N+](=O)[O-])cc1S(=O)(=O)N(C)C", "cell viability", 95.7],
  ["O=C(O)CCc1nc(-c2ccccc2)c(-c2ccccc2)o1", "cell viability", 104],
  ["CN1C2C=C(c3sccc3Br)CC1CC2 (configuration not stated)", "cell viability", 107],
  ["Cc1nn(-c2ccccc2)c(C)c1/C=N/N1CCN(Cc2ccccc2)CC1", "cell viability", 87.1],
  ["COC(=O)N[C@H](C(=O)N1CCC[C@H]1c1nc(-c2ccc3c(c2)O[C@@H](c2ccccc2)n2c-3cc3cc(-c4c[nH]c([C@@H]5CCCN5C(=O)[C@@H](NC(=O)OC)C(C)C)n4)ccc32)c[nH]1)C(C)C", "cell viability", 110],
  ["O=C1C(CC[S+]([O-])c2ccccc2)C(=O)N(c2ccccc2)N1c1ccccc1 (configuration not stated)", "cell viability", 109],
  ["CCCCCCNC(=O)n1cc(F)c(=O)[nH]c1=O", "cell viability", 108]
]}

###

Reported drug-induced phospholipidosis is given for each of the following compounds.
System: A549-ACE2
Assay: drug-induced phospholipidosis relative to tamoxifen; higher = more phospholipidosis
Settings: 0.833333 µM; 24 h

{"columns": ["compound", "assayedTarget", "u", "drug-induced phospholipidosis"],
 "data": [
  ["Cc1ccc(C(=O)Nc2cccc(C(F)(F)F)c2)cc1Nc1nc(-c2cccnc2)nc2c1cnn2C", "A549-ACE2", "%", 19.7],
  ["C1CCC(C(CC2CCCCN2)C2CCCCC2)CC1 (centres undefined)", "A549-ACE2", "%", 25.8],
  ["CN1CCN(CCCN2c3ccccc3Sc3ccc(Cl)cc32)CC1", "A549-ACE2", "%", 10.5],
  ["CCCCCC(=O)O[C@]1(C(C)=O)CC[C@H]2[C@@H]3CCC4=CC(=O)CC[C@]4(C)[C@H]3CC[C@@]21C [17-hydroxyprogesterone-caproate]", "A549-ACE2", "%", 6.09]
]}

###

Test system: HepG2
Experiment: drug sensitivity score (DSS) for viability; higher = more toxic; extreme values may be limits of the assay
Conditions: 72 h
Reported drug sensitivity score is given for each of the following molecules.

{"columns": ["molecule", "drug sensitivity score"],
 "data": [
  ["CCCn1c(=O)c2[nH]c(-c3cnn(Cc4cccc(C(F)(F)F)c4)c3)nc2n(CC)c1=O [GS-6201]", 0],
  ["Cc1nn(-c2ccccc2)c(C)c1/C=N/N1CCN(Cc2ccccc2)CC1 [SANT-1]", 0],
  ["CNC(C)(C)Cc1ccccc1 [mephentermine]", 0],
  ["CN1C2C=C(c3sccc3Br)CC1CC2 (stereo unspecified) [NS-3861]", 0.3],
  ["CC1(C)CCC(C)(C)c2cc(NC(=O)c3ccc(C(=O)O)cc3)ccc21 [tamibarotene]", 0],
  ["NCC(CS(=O)(=O)O)c1ccc(Cl)cc1 (stereo unspecified) [saclofen]", 0]
]}

###

Reported cell viability is given for each of the following compounds.
Test system: U2OS
Test: cell viability relative to DMSO; higher = less toxic
Conditions: 72 h; 100 nM

{"columns": ["compound", "u", "cell viability"],
 "data": [
  ["C[C@@H]1CC[C@H]2C(C)(C)[C@H]3C[C@@]12CC[C@@]3(C)O", "%", 101],
  ["Cc1nnc2ccc(-c3cccc(C(F)(F)F)c3)nn12", "%", 94.3],
  ["COc1cc2ncnc(Nc3ccc(O)c(Br)c3)c2cc1OC", "%", 99.5],
  ["O=C1CN=C(c2cccc(Br)c2)c2oc3ccccc3c2N1", "%", 95.5],
  ["O=C1C(CC[S+]([O-])c2ccccc2)C(=O)N(c2ccccc2)N1c1ccccc1 (configuration not stated)", "%", 104],
  ["O=C(NOCC(O)CO)c1cc(Br)c(F)c(F)c1Nc1ccc(I)cc1F (configuration not stated)", "%", 92.7],
  ["C[C@H](N)C(=O)O", "%", 104],
  ["CCOc1nc2cccc(C(=O)OCc3oc(=O)oc3C)c2n1Cc1ccc(-c2ccccc2-c2noc(=O)[nH]2)cc1", "%", 94.7],
  ["CC[C@]12CCCN3CCc4c(n(c5ccccc45)[C@@](O)(C(=O)OC)C1)[C@@H]32", "%", 96.2],
  ["CC(C)n1nc(-c2ccc3oc(N)nc3c2)c2c(N)ncnc21", "%", 35],
  ["CCCCNc1cc(C(=O)O)cc(S(N)(=O)=O)c1Oc1ccccc1 [bumetanide]", "%", 98.9],
  ["C[C@H](/C=C/[C@H](C)C(C)(C)O)[C@H]1CC[C@H]2/C(=C/C=C3C[C@@H](O)C[C@H](O)C3)CCC[C@]12C", "%", 98.9],
  ["CCN1CCCC1=O", "%", 104],
  ["Clc1cccc(-c2nnnn2Cc2cccnc2)c1Cl", "%", 94.2],
  ["Cn1cc(C(=O)c2cccc3ccccc23)cc1C(=O)O", "%", 101],
  ["O=C(O)c1cc(O)c2ccc(Cl)cc2n1", "%", 96.4],
  ["CONC(=N)c1ccc(-c2ccc(-c3ccc(C(=N)NOC)cc3)o2)cc1", "%", 96.9],
  ["COc1cc2c(NC3CCN(C)CC3)nc(N3CCCN(C)CC3)nc2cc1OCCCN(C)C", "%", 104],
  ["CC1Sc2c(C(=O)O)c(=O)c3cc(F)c(N4CCNCC4)cc3n21 (configuration not stated)", "%", 98.2],
  ["Cc1cc(C)cc(C(=O)NOCCCCCC(=O)NO)c1", "%", 90.4],
  ["CC(=O)Nc1cccc2c1c(Sc1ccc(Cl)cc1)c(C)n2CC(=O)O", "%", 94.3],
  ["Cc1n[nH]c2ccc(-c3cncc(OC[C@@H](N)Cc4ccccc4)c3)cc12", "%", 97.7],
  ["CN(C/C=C/C#CC(C)(C)C)Cc1cccc2ccccc12", "%", 95.3],
  ["C/C(=C\\c1csc(C)n1)[C@@H]1C[C@@H]2O[C@]2(C)CCC[C@H](C)[C@H](O)[C@@H](C)C(=O)C(C)(C)[C@@H](O)CC(=O)N1 [ixabepilone]", "%", 101],
  ["CN(C)CCn1nnnc1SCC1=C(C(=O)O)N2C(=O)[C@@H](NC(=O)Cc3csc(N)n3)[C@H]2SC1", "%", 106],
  ["O=S(=O)(NCCCCCCc1ccccc1)c1cccc2c(Cl)cccc12", "%", 92.7],
  ["O=c1oc2c(O)c(O)cc3c(=O)oc4c(O)c(O)cc1c4c23", "%", 103],
  ["COc1ccc2c(c1)c(CC(=O)O)c(C)n2C(=O)c1ccc(Cl)cc1", "%", 97.8],
  ["BrC1C(Br)C(Br)C(Br)C(Br)C1Br (configuration not stated)", "%", 101],
  ["CCn1nc(C2CCN(C(=O)CCO)CC2)nc1-c1cnc(N)c(-c2nnc(C(C)(C)C)o2)n1", "%", 99],
  ["Clc1ccc(COC(Cn2ccnc2)c2ccc(Cl)cc2Cl)c(Cl)c1 (configuration not stated)", "%", 102],
  ["Clc1ccc(C(Cn2ccnc2)OCc2ccsc2Cl)c(Cl)c1 (configuration not stated)", "%", 96.9],
  ["Clc1ccc(COC(Cn2ccnc2)c2ccc(Cl)cc2Cl)cc1 (configuration not stated)", "%", 95.6],
  ["CC1(C)CCC(C)(C)c2cc(NC(=O)c3ccc(C(=O)O)cc3)ccc21", "%", 90.6],
  ["CN(c1ccccc1CNc1nc(Nc2ccc3c(c2)CC(=O)N3)ncc1C(F)(F)F)S(C)(=O)=O", "%", 94.3],
  ["O=c1cc(N2CCOCC2)oc2c(-c3ccccc3)cccc12", "%", 94.2],
  ["CN1CCN(CCCN2c3ccccc3Sc3ccc(Cl)cc32)CC1", "%", 98.6]
]}
